# reported Abs 630 (25 nM); entries follow
Molecular target: T1, human IL-10 receptor (hIL-10R alpha and beta chains) on HEK-Blue IL-10 reporter cells (human, UniProt Q13651 22-578; Q08334 20-325)
T1 sequence 1: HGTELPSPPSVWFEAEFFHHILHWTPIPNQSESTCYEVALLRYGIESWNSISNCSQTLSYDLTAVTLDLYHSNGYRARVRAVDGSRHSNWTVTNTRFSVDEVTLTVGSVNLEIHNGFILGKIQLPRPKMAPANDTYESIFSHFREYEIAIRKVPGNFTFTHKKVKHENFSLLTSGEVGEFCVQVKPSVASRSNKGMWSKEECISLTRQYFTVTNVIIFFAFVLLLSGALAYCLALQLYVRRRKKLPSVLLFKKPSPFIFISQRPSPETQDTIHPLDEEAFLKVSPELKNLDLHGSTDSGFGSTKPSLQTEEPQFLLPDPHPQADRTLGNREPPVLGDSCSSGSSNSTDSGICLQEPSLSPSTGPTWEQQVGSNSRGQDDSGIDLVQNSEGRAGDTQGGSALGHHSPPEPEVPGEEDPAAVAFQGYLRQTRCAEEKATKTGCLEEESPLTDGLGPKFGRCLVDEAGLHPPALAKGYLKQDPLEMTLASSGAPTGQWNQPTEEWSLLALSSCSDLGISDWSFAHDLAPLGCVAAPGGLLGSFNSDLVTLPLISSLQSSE
T1 sequence 2: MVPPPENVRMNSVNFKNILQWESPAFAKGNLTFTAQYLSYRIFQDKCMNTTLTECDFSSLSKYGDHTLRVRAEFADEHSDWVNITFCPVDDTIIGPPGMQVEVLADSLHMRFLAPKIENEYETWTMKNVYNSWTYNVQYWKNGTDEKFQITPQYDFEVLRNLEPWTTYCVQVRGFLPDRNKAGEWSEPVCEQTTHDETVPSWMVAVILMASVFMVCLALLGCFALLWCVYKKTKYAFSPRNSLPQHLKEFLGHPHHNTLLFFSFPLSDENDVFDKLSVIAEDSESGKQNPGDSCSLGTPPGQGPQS
Assay: cell-based or functional assay
Give the value, in units of Abs 630, as a plain number.

Study these solved cases before continuing.
- binder: "IL10R binding molecule of SEQ ID NO: 320 (bispecific antibody) QVQLQESGGGSVQAGGSLRLSCAASRYTYNSYCMGWFRQAPGKEREGVATIDSDGMTRYADSVKGRFTISKDNAKNTLYLQMNSLKPEDTAMYYCAADADCTIAAMTTNPLGQGTQVTVSSGGGSQVQLQESGGGSVQAGGSLRLSCAASRFTYSSYCMGWFRQAPGKEREGVASIDSDGSTSYTDSVKGRFTISKDNAKNTLYLQMNSLKPEDTAMYYCALDLMSTVVPGFCGFLLSAGMDYWGKGTQVTVSSASHHHHHH"
  Abs 630 (25 nM) (Abs 630): 0.54
- binder: "IL10R binding molecule of SEQ ID NO: 271 (bispecific antibody) QVQLQESGGGSVQAGGSLRLSCAASGYTYSMYCMGWFRQAPGKEREGVAQINSDGSTSYADSVKGRFTISKDNAKNTLYLQMNSLKPEDTAMYYCAADSRVYGGSWYERLCGPYTYEYNYWGQGTQVTVSSGGGSQVQLQESGGGSVQAGGSLRLSCAASGYTYSSYCMGWFRQAPGKEREGVAHIDSDGSTSYADSVKGRFTISKDNAKNTLYLQMNSLKPEDTAMYYCAADPIPGPGYCDGGPNKYWGQGTQVTVSSASHHHHHH"
  Abs 630 (25 nM) (Abs 630): 1.93
- binder: "IL10R binding molecule of SEQ ID NO: 310 (bispecific antibody) QVQLQESGGGSVQAGGSLRLSCAASGYTYSSGCMGWFRQAPGKEREAVAAINSDGSTSYADSVKGRFTISKDNAKNTLYLQMNSLKPEDTAMYYCAAEPYCSGGYPRWSVAEFGYWGQGTQVTVSSGGGSQVQLQESGGGSVQAGGSLRLSCGASGYTYSSYCMGWFRQVPGKEREGVAVIDSDGSTSYADSVKGRFTISKDNGKNTLYLQMNSLKPEDTAMYYCAADLGHYRPPCGVLYLGMDYWGKGTQVTVSSASHHHHHH"
  Abs 630 (25 nM) (Abs 630): 0.51
- binder: "IL10R binding molecule of SEQ ID NO: 325 (bispecific antibody) QVQLQESGGGSVQAGGSLRLSCAASRYTYNSYCMGWFRQAPGKEREGVATIDSDGMTRYADSVKGRFTISKDNAKNTLYLQMNSLKPEDTAMYYCAADADCTIAAMTTNPLGQGTQVTVSSGGGSQVQLQESGGGSVQAGGSLRLSCAASGYSNCSYDMTWYRQAPGKEREFVSAIHSDGSTRYADSVKGRFFISQDNAKNTVYLQMNSLKPEDTAMYYCKTDPLHCRAHGGSWYSVRANYWGQGTQVTVSSASHHHHHH"
  Abs 630 (25 nM) (Abs 630): 0.49
- binder: "IL10R binding molecule of SEQ ID NO: 286 (bispecific antibody) QVQLQESGGGSVQAGGSLRLSCTVSGYTYSSNCMGWFRQAPGKEREGVATIYTGGGNTYYADSVKGRFTISQDNAKNTVYLQMNNLKPEDTAMYYCAAEPLSRVYGGSCPTPTFDYWGQGTQVTVSSGGGSQVQLQESGGGSVQAGGSLRLSCAASRYTYNSYCMGWFRQAPGKEREGVATIDSDGMTRYADSVKGRFTISKDNAKNTLYLQMNSLKPEDTAMYYCAADADCTIAAMTTNPLGQGTQVTVSSASHHHHHH"
  Abs 630 (25 nM) (Abs 630): 0.46

Noted for IL10R binding molecule of SEQ ID NO: 307 (bispecific antibody) QVQLQESGGGSVQAGGSLRLSCAASGYTYSSGCMGWFRQAPGKEREAVAAINSDGSTSYADSVKGRFTISKDNAKNTLYLQMNSLKPEDTAMYYCAAEPYCSGGYPRWSVAEFGYWGQGTQVTVSSGGGSQVQLQESGGGSVQAGGSLRLSCAASGYTYSMYCMGWFRQAPGKEREGVAQINSDGSTSYADSVKGRFTISKDNAKNTLYLQMNSLKPEDTAMYYCAADSRVYGGSWYERLCGPYTYEYNYWGQGTQVTVSSASHHHHHH : its Abs 630 (25 nM) reads 0.44

Noted for IL10R binding molecule of SEQ ID NO: 260 (bispecific antibody) QVQLQESGGGSVQAGGSLRLSCAASRYLYSIDYMAWFRQSPGKEREPVAVIYTASGATFYPDSVKGRFTISQDNAKMTVYLQMNSLKSEDTAMYYCAAVRKTDSYLFDAQSFTYWGQGTQVTVSSGGGSQVQLQESGGGSVEAGGSLRLSCAASGYTHSSYCMGWFRQAPGKEREGVAAIDVDGSTTYADSVKGRFTISKDNAKNTLYLQMNSLKPEDTGMYYCAAEFADCSSNYFLPPGAVRYWGQGTQVTVSSASHHHHHH : its Abs 630 (25 nM) reads 0.49

Noted for IL10R binding molecule of SEQ ID NO: 333 (bispecific antibody) QVQLQESGGGSVEAGGSLRLSCAASGYTHSSYCMGWFRQAPGKEREGVAAIDVDGSTTYADSVKGRFTISKDNAKNTLYLQMNSLKPEDTGMYYCAAEFADCSSNYFLPPGAVRYWGQGTQVTVSSGGGSQVQLQESGGGSVQAGGSLRLSCAASRYLYSIDYMAWFRQSPGKEREPVAVIYTASGATFYPDSVKGRFTISQDNAKMTVYLQMNSLKSEDTAMYYCAAVRKTDSYLFDAQSFTYWGQGTQVTVSSASHHHHHH : its Abs 630 (25 nM) reads 0.49

Noted for IL10R binding molecule of SEQ ID NO: 331 (bispecific antibody) QVQLQESGGGSVQAGGSLRLSCTVSRYTASVNYMGWFRQAPGKEREGVATIFTGAGTTYYANSVKGRFTISRDNAKNTAYLQMNSLKPEDTAIYYCAVDFRGGLLYRPAYEYTYRGQGTQVTVSSGGGSQVQLQESGGGSVQAGGSLRLSCGASGYTYSSYCMGWFRQVPGKEREGVAVIDSDGSTSYADSVKGRFTISKDNGKNTLYLQMNSLKPEDTAMYYCAADLGHYRPPCGVLYLGMDYWGKGTQVTVSSASHHHHHH : its Abs 630 (25 nM) reads 0.5
